Measurement Target: T1, huNABA-avi-his (hybrid protein N-A1-B3-A2: N and A1 domains of human BGP, B3 domain of human CEA, A2 domain … (human, biotinylated at the avi tag (in vivo, co-transfected biotin ligase)))
T1 construct: also called NABA-avi-his reagent; biotinylated NABA
T1 chain: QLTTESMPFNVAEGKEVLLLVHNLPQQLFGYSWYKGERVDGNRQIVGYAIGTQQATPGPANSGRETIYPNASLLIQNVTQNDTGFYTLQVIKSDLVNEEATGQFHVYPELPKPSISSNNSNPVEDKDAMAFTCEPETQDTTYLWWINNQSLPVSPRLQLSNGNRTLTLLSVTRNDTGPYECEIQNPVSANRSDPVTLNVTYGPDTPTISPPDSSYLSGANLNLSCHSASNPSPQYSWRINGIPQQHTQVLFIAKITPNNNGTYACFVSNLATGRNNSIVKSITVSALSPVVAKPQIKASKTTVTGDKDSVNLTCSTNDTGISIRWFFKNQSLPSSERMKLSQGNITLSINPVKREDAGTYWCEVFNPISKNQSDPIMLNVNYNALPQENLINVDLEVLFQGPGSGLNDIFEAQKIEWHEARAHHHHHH
Assay Details: Proteon SPR, antibody analyte on biotinylated NABA (Neutravidin chip)
Property: pKd
Please report pKd as the negative decimal logarithm of the molar concentration, giving only the number.

State, in one line, measured pKd of anti-CEA antibody with heavy chain CH1A1C and light chain 2F1 (antibody, V domains shown) VH: QVQLVQSGPELKKPGASVKVSCKASGYTFTEFGMNWVRQAPGQGLEWMGWINTKTGEATYVEEFKGRVTMTTDTSTSTAYMELRSLRSDDTAVYYCARWDFYDYVEAMDYWGQGTTVTVSS VL: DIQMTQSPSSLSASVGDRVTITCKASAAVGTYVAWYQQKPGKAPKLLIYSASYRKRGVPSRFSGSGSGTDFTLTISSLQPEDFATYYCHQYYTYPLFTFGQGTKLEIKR
7.89

State, in one line, measured pKd of anti-CEA antibody with heavy chain CH1A1A and light chain 2F1 (antibody, V domains shown) VH: QVQLVQSGAEVKKPGASVKVSCKASGYTFTEFGMNWVRQAPGQGLEWMGWINTKTGEATYVEEFKGRVTFTTDTSTSTAYMELRSLRSDDTAVYYCARWDFYDYVEAMDYWGQGTTVTVSS VL: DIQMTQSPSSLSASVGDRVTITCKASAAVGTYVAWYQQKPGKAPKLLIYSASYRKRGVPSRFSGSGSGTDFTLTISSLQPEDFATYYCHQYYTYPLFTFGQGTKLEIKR
8.23

State, in one line, measured pKd of humanized PR1A3 antibody with heavy chain variable region CH7A and light chain variable region 2F1 (antibody, V domains shown, Measured in the bivalent form; also called CH7Ax2F1; parental antibody CH7A) VH: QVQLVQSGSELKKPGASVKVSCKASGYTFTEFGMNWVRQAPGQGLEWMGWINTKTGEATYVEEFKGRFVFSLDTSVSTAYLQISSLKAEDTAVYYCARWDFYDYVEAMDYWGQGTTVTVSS VL: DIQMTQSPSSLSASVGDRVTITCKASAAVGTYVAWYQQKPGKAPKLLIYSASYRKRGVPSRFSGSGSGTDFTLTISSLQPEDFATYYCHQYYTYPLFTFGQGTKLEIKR
8.74

State, in one line, measured pKd of anti-CEA antibody with heavy chain CH1A1F and light chain 2F1 (antibody, V domains shown) VH: QVQLVQSGAEVKKPGASVKVSCKASGYTFTEFGMNWVRQAPGQGLEWMGWINTKTGEATYVEEFKGRVTMTTDTSTSTAYLELRSLRSDDTAVYYCARWDFYDYVEAMDYWGQGTTVTVSS VL: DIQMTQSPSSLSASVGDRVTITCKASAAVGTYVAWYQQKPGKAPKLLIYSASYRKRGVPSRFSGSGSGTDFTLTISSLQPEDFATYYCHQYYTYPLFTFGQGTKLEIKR
8.12

State, in one line, measured pKd of anti-CEA antibody with heavy chain CH1A1 and light chain 2F1 (antibody, V domains shown, CH1A with M69F/T71L double point mutation; also called precursor clone CH1A1) VH: QVQLVQSGAEVKKPGASVKVSCKASGYTFTEFGMNWVRQAPGQGLEWMGWINTKTGEATYVEEFKGRVTFTLDTSTSTAYMELRSLRSDDTAVYYCARWDFYDYVEAMDYWGQGTTVTVSS VL: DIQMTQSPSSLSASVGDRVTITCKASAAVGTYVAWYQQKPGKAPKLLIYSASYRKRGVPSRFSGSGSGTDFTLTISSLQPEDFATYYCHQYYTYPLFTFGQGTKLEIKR
8.37

Values compiled from patent US20230365711A1.
